biological target: CYP3A4 (Homo sapiens, UniProt P08684, S18F); assay: Absorbance difference titrations of recombinant CYP3A4 with MDZ and CBZ; conditions: human, pH 7.4
test_readout: Kd

Test item `Cc1ncc2n1-c1ccc(Cl)cc1C(c1ccccc1F)=NC2` ; CYP3A4 (Homo sapiens, UniProt P08684, S18F); reported Kd was 70.6 µM

----------
molecular target: UniProtKB P08684; details: human, pH 7.4, Km of 4-OH-MDZ formation, presence of 240 μM CBZ; fit to eq 1
test_readout: Km at 2 min
# number then unit; no other words

# Km at 2 min of `Cc1ncc2n1-c1ccc(Cl)cc1C(c1ccccc1F)=NC2` = 57.7 µM
